Below are GI50 values recorded for 786-0 renal.

stdin: Return GI50 measured with 786-0 renal given this compound: CC(C)COC(=O)c1ccc2[nH]c(O)c(C=Nc3ccc(S(N)(=O)=O)cc3)c2c1
stdout: 1210 nM

stdin: Form: Entry = CC1(C)OC(=O)C=C([O-])O1.CC1(C)OC(=O)C=C([O-])O1.CC[O-].CC[O-].[Ti+4] | System = 786-0 renal | GI50 = ____
stdout: > 100000 nM

stdin: Recall the recorded GI50 for C=CCCCc1ccc(C(O)CCCCCCCCCCCC)o1 (stereo unspecified) with 786-0 renal and state it.
stdout: 15200 nM

stdin: Record CCCNc1nc2ccccc2c2c1S(=O)(=O)c1ccc(Cl)cc1C2=O : what is its GI50 with 786-0 renal?
stdout: 1700 nM

stdin: Provide the documented GI50 with 786-0 renal as the system for Oc1ccc(Cl)cc1CNc1nc2ccccc2[nH]1
stdout: 14300 nM

stdin: Return GI50 measured with 786-0 renal given this compound: Cc1ccc(-c2nc(N3CCCNCC3)c3oc(-c4ccc(C)cc4)nc3n2)cc1
stdout: 1760 nM

stdin: Please state recorded GI50 (tested on 786-0 renal) of C=C1c2c(Cl)ccc(O)c2C(O)=C2C(=O)[C@]3(O)C(O)=C(C(N)=O)C(=O)[C@@H](N(C)C)[C@@H]3[C@@H](O)[C@H]12
stdout: 1170 nM

stdin: I'm curious: which GI50 was measured for CCN(CC)CCSCCCNc1c2ccc(Cl)cc2nc2ccc(OC)cc12 tested on 786-0 renal?
stdout: 1120 nM

stdin: What measured GI50 is associated with COc1ccc(Nc2cc(C)nc(N3CCN(c4ccnc5cc(Cl)ccc45)CC3)n2)cc1 on 786-0 renal?
stdout: 2610 nM

stdin: Return GI50 measured with 786-0 renal given this compound: Clc1nc(Cl)c2ncn(Cc3ccc(Cn4cnc5c(Cl)nc(Cl)nc54)cc3)c2n1
stdout: 1600 nM

stdin: State its GI50 on 786-0 renal: COc1ccc(OC)c(Nc2nc(-c3c(C)nc4sccn34)cs2)c1
stdout: 32300 nM

* * *

# Tested on: SN12C renal
# Assay: NCI tumour cell line growth inhibition, 48 h
Recorded Metric: TGI

stdin: Tell me the measured TGI of O=c1[nH]c2c(c(=O)[nH]1)SSC2 , please.
stdout: 7.95 µM

stdin: Give the measured TGI of O=C(NS(=O)(=O)c1ccccc1)C(Cc1ccccc1)C(Cc1ccccc1)C(=O)NS(=O)(=O)c1ccccc1 (stereo unspecified) .
stdout: > 100 µM

stdin: Given the molecule O=c1ccn(C2OC(CN(O)CCC3C(CO)OC(n4ccc(=O)[nH]c4=O)C3O)C(O)C2O)c(=O)[nH]1 (stereo unspecified) , what is its reported TGI?
stdout: > 100 µM

stdin: Which value of TGI has been reported for COc1ccc(Nc2cc(C)nc(N3CCN(c4ccnc5cc(Cl)ccc45)CC3)n2)cc1 in the records?
stdout: > 100 µM

stdin: Form field: reported TGI of CN(C)CCN1C(=O)c2cccc3cccc(c23)C1=O
stdout: > 25 µM

stdin: Report TGI for COc1cc2oc(=O)ccc2cc1CC=C(C)C please.
stdout: > 100 µM

stdin: Dear colleague, I am looking for the recorded TGI of the following molecule: CN1C(Cl)=NS(=O)(=O)c2ccccc21
stdout: > 100 µM

stdin: Find the recorded TGI belonging to OC(C/C=N/Nc1ccccc1)(C(F)(F)Cl)C(F)(F)Cl and report it.
stdout: > 10 µM

stdin: Find the recorded TGI belonging to CCOC(OC1=C(C#N)CCCC1)C(C)[Se]c1ccccc1 (stereo unspecified) and report it.
stdout: 89.9 µM

stdin: Endpoint output: TGI of CN(C)CCN(C(=Nc1ccccc1)N1CCCC1)c1ccccc1 . Value?
stdout: > 100 µM

stdin: # input molecule: O=C(O)C1=C(C(=O)Nc2ccc(NC(=O)C3=C(C(=O)O)C4C=CC3C4)cc2)C2C=CC1C2 ; wanted: its TGI
stdout: > 100 µM

* * *

# System: M19-MEL melanoma
# Assay: NCI tumour cell line growth inhibition, 48 h
For each entry below, report its TGI value.

stdin: I have this molecule here, O=[N+]([O-])c1cccc(C2=NOC3C4CCC(C4)C23)c1 (stereo not given) , and I need its recorded TGI.
stdout: > 100 µM

stdin: May I ask what TGI has been recorded for CCOC(=O)C1=C(Nc2ccc(Cl)c(Cl)c2)OC/C1=N\NS(=O)(=O)c1ccc(C)cc1 ?
stdout: > 100 µM

stdin: Requested read-out: TGI. Entry: CCC(Oc1ccc(OC)c2ccccc(=O)c12)C(=O)O (stereo not given)
stdout: > 100 µM

stdin: Consider the molecule O=C1c2nc3n(c2C(=O)c2c1nc1n2CCC1)CCC3 and give its measured TGI.
stdout: 0.387 µM

stdin: Using the record for COC1=C2CC(C)CC(OC)C(O)C(C)/C=C(\C)C(OC(N)=O)C(OC)/C=C\C=C(/C)C(=O)NC(=C(/C=N/N3CCCCC3)C1=O)C2=O (stereo not given) , report its TGI.
stdout: 19 µM

stdin: I have this molecule here, O=C(/C=C1/Nc2ccc([N+](=O)[O-])cc2NC1O)c1cccc([N+](=O)[O-])c1 (stereo not given) , and I need its recorded TGI.
stdout: > 100 µM

stdin: Would you mind telling me what TGI value was observed for CCCCCCC(/C=N/O)C(C)(O)CCC (stereo not given) ?
stdout: > 100 µM

stdin: TGI for O=C(NS(=O)(=O)c1ccccc1)C(Cc1ccccc1)C(Cc1ccccc1)C(=O)NS(=O)(=O)c1ccccc1 (stereo not given) ?
stdout: > 100 µM

stdin: Given the molecule CCC(=O)N/N=C(\C=C\c1cccc(O)c1)c1sc(Nc2ccc(C)cc2[N+](=O)[O-])nc1C , what is its reported TGI?
stdout: > 100 µM

stdin: Look up TGI: CC(=O)C1=CCC2c3[nH]c4ccccc4c3CCN2C1 (stereo not given)
stdout: > 100 µM

* * *

# Tested on: MALME-3M melanoma
# Assay: NCI tumour cell line growth inhibition, 48 h
Task for the reader: assign each of the following molecules its reported GI50.

stdin: Quick check: GI50 of Cc1nc(Nc2nc3ccccc3o2)nc(-c2cccc([N+](=O)[O-])c2)c1C(=O)Nc1ccc(F)c(Cl)c1 ?
stdout: 1.92 µM

stdin: Request the reported GI50 associated with CC(C)CCN[C@@H]1CCc2cc(O)c(N3CC(=O)NS3(=O)=O)c(F)c2C1
stdout: > 100 µM

stdin: Quick check: GI50 of C=CCCCc1ccc(C(O)CCCCCCCCCCCC)o1 (centres undefined) ?
stdout: 26 µM

stdin: Give its GI50 value. Item: COc1cc2c3c(n(CCCN=[N+]=[N-])c(=O)c2cc1OC)-c1ccc(N(C)C)cc1C3=O
stdout: > 100 µM

stdin: Item COc1ccc2nc(NC(=O)c3cccnc3Nc3cc(OC)c(OC)c(OC)c3)sc2c1 has what recorded GI50?
stdout: 10.1 µM

stdin: May I ask what GI50 has been recorded for Clc1nc(Cl)c2ncn(Cc3ccc(Cn4cnc5c(Cl)nc(Cl)nc54)cc3)c2n1 ?
stdout: 5.62 µM

stdin: Quick check: GI50 of CCN(CC)CCSCCCNc1c2ccc(Cl)cc2nc2ccc(OC)cc12 ?
stdout: 2.03 µM

stdin: Name the recorded GI50 for Cc1cccc2c(N)c3ccccc3nc12 .
stdout: 1.39 µM

stdin: # get_value(readout='GI50', item= Cn1cnc([N+](=O)[O-])c1Sc1ncn[nH]1 )
stdout: 23.9 µM

* * *

Recorded Metric: GI50

stdin: Give the reported GI50 for CN(C)CCN1C(=O)c2cccc3cccc(c23)C1=O (system: CAKI-1 renal).
stdout: 5.13 µM

stdin: Field: GI50 (CAKI-1 renal). Entry: Cc1cc(OCc2nnc3n2N=C(c2ccc(Cl)cc2Cl)CS3)ccc1Cl
stdout: 44.2 µM

stdin: Hello, I am looking for reported GI50 with CAKI-1 renal for Cc1c(Sc2ccccc2)[n+](=O)c2cc(Cl)c(Cl)cc2n1[O-] . Could you help?
stdout: 42 µM

stdin: I'm curious: which GI50 was measured for CC(C)COC(=O)c1ccc2[nH]c(O)c(C=Nc3ccc(S(N)(=O)=O)cc3)c2c1 tested on CAKI-1 renal?
stdout: 2.86 µM

stdin: Short answer please: GI50, CAKI-1 renal, entry Cc1ccc(-c2nc(N3CCCNCC3)c3oc(-c4ccc(C)cc4)nc3n2)cc1
stdout: 1.56 µM

* * *

# Tested on: T-47D breast
# Assay: NCI tumour cell line growth inhibition, 48 h
Recorded Metric: GI50

stdin: Any idea what its GI50 is? The molecule is Cn1cnc([N+](=O)[O-])c1Sc1ncn[nH]1
stdout: 17 µM

stdin: Sample COc1ccc(OC)c(Nc2nc(-c3c(C)nc4sccn34)cs2)c1 — what was its GI50?
stdout: 5.43 µM

stdin: Recorded GI50 of Cc1c(Sc2ccccc2)[n+](=O)c2cc(Cl)c(Cl)cc2n1[O-] , please.
stdout: 36.2 µM

stdin: Would you kindly share the measured GI50 for CC(C)CCN[C@@H]1CCc2cc(O)c(N3CC(=O)NS3(=O)=O)c(F)c2C1 ?
stdout: > 100 µM

stdin: Suppose we examine the molecule COc1cc(Cl)cc(-c2nn(-c3cccc(NC(=O)Nc4ccc(Cl)c(C(F)(F)F)c4)c3)cc2-c2ccncc2)c1 ; what GI50 value has been reported?
stdout: 1.25 µM

stdin: I have this molecule here, ClCc1ccc(Cn2cnc3c(Cl)nc(Cl)nc32)cc1 , and I need its recorded GI50.
stdout: 2.18 µM

stdin: Given the molecule Clc1nc(Cl)c2ncn(Cc3ccc(Cn4cnc5c(Cl)nc(Cl)nc54)cc3)c2n1 , what is its reported GI50?
stdout: 12.4 µM

stdin: Given the molecule N#Cc1cc(S(=O)(=O)Nc2nc3ccccc3s2)c(SCc2ccccc2)cc1Cl , what is its reported GI50?
stdout: 22.8 µM

stdin: Which value of GI50 has been reported for COc1ccc(-c2nn(-c3cccc(NC(=O)c4ccc(N5CCOCC5)c(C(F)(F)F)c4)c3)cc2-c2ccncc2)cc1Cl in the records?
stdout: 4.5 µM

stdin: # query: GI50 of entry Cc1ccc(-c2nc(N3CCCNCC3)c3oc(-c4ccc(C)cc4)nc3n2)cc1
stdout: 1.94 µM

stdin: Name the reported GI50 value associated with the molecule CO[C@H]1CC(c2ccc[nH]2)=N[C@]12O[C@@H](C)C[C@@H]1CCCCCCCc3ccc([nH]3)[C@H]12
stdout: 0.732 µM
